- ASSAYED SYSTEM: T1, human soluble urokinase plasminogen activator receptor (suPAR) (human, UniProt Q03405 23-303, limits assumed)
- T1 construct: Target antigen of the scFv off-rate screen; also called hsuPAR; human suPAR
- T1 sequence (Q03405 23-303 limits assumed): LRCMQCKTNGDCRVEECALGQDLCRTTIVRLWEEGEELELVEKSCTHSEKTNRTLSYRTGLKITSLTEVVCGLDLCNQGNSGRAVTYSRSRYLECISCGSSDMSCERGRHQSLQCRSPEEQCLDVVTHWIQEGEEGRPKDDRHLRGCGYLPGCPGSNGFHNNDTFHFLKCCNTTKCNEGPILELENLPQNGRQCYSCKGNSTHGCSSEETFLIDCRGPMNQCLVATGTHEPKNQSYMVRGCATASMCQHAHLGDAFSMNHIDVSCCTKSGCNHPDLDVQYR
- METHOD SUMMARY: BLI (Octet) off-rate screen of scFv clones
READOUT KIND: koff (s⁻¹)

BINDER	READOUT KIND	NUMBER
suPAR_DB06_F06 (scFv, V domains shown) VH: QVQLVQSGAEVKKPGASVKVSCKASGGTFIGHYVHWVRQAPGQGLEWMGWIDHENGNTIYDQKFQGRVTMTRDTSTSTVYMELSSLRSEDTAVYYCARGYDVDWFVYWGQGTLVTVSS VL: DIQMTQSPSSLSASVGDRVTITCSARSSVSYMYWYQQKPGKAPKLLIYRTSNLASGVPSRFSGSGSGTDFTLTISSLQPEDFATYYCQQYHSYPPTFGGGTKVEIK	koff	0.00331
suPAR_DB06_G02 (scFv, V domains shown) VH: QVQLVQSGAEVKKPGASVKVSCKASGYNITDYYIHWVRQAPGQGLEWMGWIDPENGSTIYDQKFQGRVTMTRDTSTSTVYMELSSLRSEDTAVYYCARGYDVDWFVYWGQGTLVTVSS VL: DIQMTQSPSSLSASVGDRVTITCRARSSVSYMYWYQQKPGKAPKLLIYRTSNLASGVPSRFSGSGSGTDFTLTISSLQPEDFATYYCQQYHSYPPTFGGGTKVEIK	koff	0.00384
suPAR_DB06_E08 (scFv, V domains shown) VH: QVQLVQSGAEVKKPGASVKVSCKASGYGFTDYYMHWVRQAPGQGLEWMGWIDHSGGNTIYAQKFQGRVTMTRDTSTSTVYMELSSLRSEDTAVYYCARGYDVDWFVYWGQGTLVTVSS VL: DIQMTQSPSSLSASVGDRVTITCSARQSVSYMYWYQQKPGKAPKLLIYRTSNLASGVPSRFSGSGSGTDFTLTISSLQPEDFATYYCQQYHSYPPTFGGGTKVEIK	koff	0.00335
suPAR_DB06_F11 (scFv, V domains shown) VH: QVQLVQSGAEVKKPGASVKVSCKASGYTFTNYYMHWVRQAPGQGLEWMGWIDHENGSTIYAQKFQGRVTMTRDTSTSTVYMELSSLRSEDTAVYYCARGYDVDWFVYWGQGTLVTVSS VL: DIQMTQSPSSLSASVGDRVTITCSARSSVSYMYWYQQKPGKAPKLLIYRTSNLQSGVPSRFSGSGSGTDFTLTISSLQPEDFATYYCQQYHSYPPTFGGGTKVEIK	koff	0.000947
suPAR_DB06_G06 (scFv, V domains shown) VH: QVQLVQSGAEVKKPGASVKVSCKASGFTFTAYYMHWVRQAPGQGLEWMGWIDPENGNTIYAQKFQGRVTMTRDTSTSTVYMELSSLRSEDTAVYYCARGYDVDWFVYWGQGTLVTVSS VL: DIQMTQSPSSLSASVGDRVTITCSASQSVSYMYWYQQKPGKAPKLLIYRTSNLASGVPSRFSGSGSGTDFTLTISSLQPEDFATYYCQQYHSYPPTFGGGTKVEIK	koff	0.00431
suPAR_DB06_D05 (scFv, V domains shown) VH: QVQLVQSGAEVKKPGASVKVSCKASGGTFTGYYMHWVRQAPGQGLEWMGWIDPSGGNTIYDQKFQGRVTMTRDTSTSTVYMELSSLRSEDTAVYYCARGYDVDWFVYWGQGTLVTVSS VL: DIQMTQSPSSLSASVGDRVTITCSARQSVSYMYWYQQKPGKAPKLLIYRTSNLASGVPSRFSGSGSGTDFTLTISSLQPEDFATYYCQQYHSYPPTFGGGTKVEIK	koff	0.00558
suPAR_DB06_C10 (scFv, V domains shown) VH: QVQLVQSGAEVKKPGASVKVSCKASGYTFSAYYMHWVRQAPGQGLEWMGWIDPSNGNTIYDQKFQGRVTMTRDTSTSTVYMELSSLRSEDTAVYYCARGYDVDWFVYWGQGTLVTVSS VL: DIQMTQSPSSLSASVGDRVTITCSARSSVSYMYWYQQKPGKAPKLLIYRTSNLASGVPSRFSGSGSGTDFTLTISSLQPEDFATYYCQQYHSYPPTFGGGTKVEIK	koff	0.00599
suPAR_DB06_G04 (scFv, V domains shown) VH: QVQLVQSGAEVKKPGASVKVSCKASGYTFTGYYMHWVRQAPGQGLEWMGWINPEGGSTNYEQKFQGRVTMTRDTSTSTVYMELSSLRSEDTAVYYCARGYDVDWFVYWGQGTLVTVSS VL: DIQMTQSPSSLSASVGDRVTITCSARYSVSYMYWYQQKPGKAPKLLIYRTSNLASGVPSRFSGSGSGTDFTLTISSLQPEDFATYYCQQYHSYPPTFGGGTKVEIK	koff	0.00549
suPAR_DB06_E10 (scFv, V domains shown) VH: QVQLVQSGAEVKKPGASVKVSCKASGDTFISYYMHWVRQAPGQGLEWMGWIDPENGNTIYDQKFQGRVTMTRDTSTSTVYMELSSLRSEDTAVYYCARGYDVDWFVYWGQGTLVTVSS VL: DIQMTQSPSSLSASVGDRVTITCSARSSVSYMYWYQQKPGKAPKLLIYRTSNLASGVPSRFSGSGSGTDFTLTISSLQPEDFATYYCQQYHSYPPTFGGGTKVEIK	koff	0.00526
suPAR_DB06_D10 (scFv, V domains shown) VH: QVQLVQSGAEVKKPGASVKVSCKASGYTFTSYYMHWVRQAPGQGLEWMGWIDPENGNTIYAQKFQGRVTMTRDTSTSTVYMELSSLRSEDTAVYYCARGYDVDWFVYWGQGTLVTVSS VL: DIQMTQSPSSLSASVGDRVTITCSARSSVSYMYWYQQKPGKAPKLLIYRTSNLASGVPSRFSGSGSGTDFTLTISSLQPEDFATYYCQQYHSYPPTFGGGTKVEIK	koff	0.00425
